From: patent US9765075B2

experimental_target: UniProtKB Q96EB6
method_notes: Trp mass spectrometry assay (SIRT1 activation)
Type: biochemical
particulars: Trp mass spectrometry assay; EC1.5 = concentration giving 150% activation of SIRT1
metric_name: Tryp AVG EC1.5 (μM)

Worked cases, Tryp AVG EC1.5 (μM) given:
{"test_smiles": "O=C(NCCCc1ccccn1)N1c2nc(-c3cccc(C(F)(F)F)c3)ccc2N2CC[C@H]1C2", "Tryp AVG EC1.5 (μM)": "B (EC1.5 1-25 μM)"}
{"test_smiles": "O=C(Nc1cccnc1)N1c2nc(-c3cccc(C(F)(F)F)c3)ccc2N2C[C@@H](O)[C@H]1C2", "Tryp AVG EC1.5 (μM)": "A (EC1.5<1 μM)"}
{"test_smiles": "Cc1cncc(NC(=O)N2c3nc(-c4cccc(Cl)c4)ccc3N3C[C@@H](O)[C@H]2C3)c1", "Tryp AVG EC1.5 (μM)": "A (EC1.5<1 μM)"}
{"test_smiles": "O=C(Nc1cccnn1)N1c2nc(-c3cccc(Cl)c3)ccc2N2CC[C@H]1C2", "Tryp AVG EC1.5 (μM)": "A (EC1.5<1 μM)"}
{"test_smiles": "O=C(Nc1ncc(-c2ccccc2)s1)N1c2nc(-c3cccc(C(F)(F)F)c3)ccc2N2CC[C@H]1C2", "Tryp AVG EC1.5 (μM)": "B (EC1.5 1-25 μM)"}
{"test_smiles": "O=C(Nc1cnccn1)N1c2nc(-c3cncc(C(F)(F)F)c3)ccc2N2C[C@@H](O)[C@H]1C2", "Tryp AVG EC1.5 (μM)": "B (EC1.5 1-25 μM)"}

Turning to the following compound.
// lookup Tryp AVG EC1.5 (μM) for "COc1cc(NC(=O)N2c3nc(-c4cncc(C(F)(F)F)c4)ccc3N3C[C@@H](O)[C@H]2C3)nc(OC)n1" B (EC1.5 1-25 μM)

----------
experimental_target: SIRT1 (Homo sapiens)
method_notes: Trp mass spectrometry assay (SIRT1 activation)
Format: biochemical
particulars: percent maximum fold activation of SIRT1; Trp peptide substrate; read-out: Tryp % Fold Act
metric_name: Emax

Worked cases, Emax given:
{"compound": "COc1cc(NC(=O)N2c3nc(-c4ccnc(N5CC[C@H](F)C5)c4)ccc3N3CC[C@H]2C3)ncn1 [Example 437]", "metric_name": "Emax", "recorded_value": "≥ 150%"}
{"compound": "O=C(Nc1cccnc1)N1c2nc(-c3cccc(Cl)c3)ccc2N2CCC[C@H]1C2 [Example 407]", "metric_name": "Emax", "recorded_value": "≥ 150%"}
{"compound": "O=C(Nc1cncc(F)c1)N1c2nc(-c3ccnc(N4CC[C@H](F)C4)c3)ccc2N2CC[C@H]1C2 [Example 475]", "metric_name": "Emax", "recorded_value": "≥ 150%"}

// lookup Emax for O=C(Nc1cc(O)ncn1)N1c2nc(N3CCCC(C(F)(F)F)C3)ccc2N2CCC[C@H]1C2 (some centres unmarked) [Example 361] ≥ 150%

And the next one, Cc1cc(-c2ccc3c(n2)N(C(=O)Nc2cncc(C)n2)[C@H]2CCN3C2)ccn1 [Example 503] ? ≥ 150%

And the next one, COc1cncc(NC(=O)N2c3nc(-c4ccnc(C)c4)ccc3N3CC[C@H]2C3)n1 [Example 499] ? ≥ 150%

And the next one, O=C(Nc1ccncn1)N1c2nc(-c3cccnc3)ccc2N2CCC[C@H]1C2 [Example 456] ? ≥ 150%

And the next one, COc1cc(NC(=O)N2c3nc(-c4cccc(Cl)c4)ccc3N3CCC[C@H]2C3)ncn1 [Example 408] ? ≥ 150%

----------
experimental_target: SIRT1 (Homo sapiens)
method_notes: Trp mass spectrometry assay (SIRT1 activation)
Assay type: biochemical
particulars: concentration of test compound that results in 150% activation of SIRT1; Trp peptide substrate
metric_name: Tryp AVG EC1.5 (μM)

Worked cases, Tryp AVG EC1.5 (μM) given:
{"compound": "O=C(Nc1cccnc1)N1c2nc(-c3cccnc3)ccc2N2CCC[C@H]1C2", "recorded_value": "B (EC1.5 1-25 μM)"}
{"compound": "COc1cc(NC(=O)N2c3nc(-c4cncc(Cl)c4)ccc3N3CC[C@H]2C3)ncn1", "recorded_value": "A (EC1.5<1 μM)"}
{"compound": "Cc1cncc(-c2ccc3c(n2)N(C(=O)Nc2cnccn2)[C@H]2CCCN3C2)c1", "recorded_value": "B (EC1.5 1-25 μM)"}
{"compound": "N#Cc1ccccc1-c1ccc2c(n1)N(C(=O)Nc1ccncn1)[C@H]1CCCN2C1", "recorded_value": "B (EC1.5 1-25 μM)"}

For the record "CN(C)c1cccc(-c2ccc3c(n2)N(C(=O)Nc2cccc(-c4cnco4)c2)[C@@H]2CCCN3C2)c1" , what value of Tryp AVG EC1.5 (μM) is listed for SIRT1 (Homo sapiens)? A (EC1.5<1 μM)

And the next one, O=C(Nc1ccc(F)cn1)N1c2nc(-c3cccc(N4CCC(C(F)(F)F)C4)c3)ccc2N2CC[C@H]1C2 (some centres unmarked) ? B (EC1.5 1-25 μM)

And the next one, "O=C(Nc1ccccn1)N1c2nc(-c3cncc(C(F)(F)F)c3)ccc2N2CCC[C@H]1C2" ? A (EC1.5<1 μM)

And the next one, "Cc1cc(-c2ccc3c(n2)N(C(=O)Nc2cccnc2)[C@H]2CCN3C2)ccn1" ? A (EC1.5<1 μM)

And the next one, "Cc1ccc(-c2ccc3c(n2)N(C(=O)Nc2ccncn2)[C@H]2CCCN3C2)cn1" ? B (EC1.5 1-25 μM)

And the next one, "O=C(Nc1ccccn1)N1c2nc(-c3ccc(Cl)c(Cl)c3)ccc2N2CC[C@H]1C2" ? A (EC1.5<1 μM)

----------
experimental_target: SIRT1 (Homo sapiens, UniProt Q96EB6)
method_notes: Trp mass spectrometry assay (SIRT1 activation)
Assay type: biochemical
particulars: concentration of test compound that results in 150% activation of SIRT1; Trp peptide substrate
metric_name: Tryp AVG EC1.5 (μM)

Worked cases, Tryp AVG EC1.5 (μM) given:
{"test_smiles": "COc1cc(NC(=O)N2c3nc(-c4cccc(Cl)c4)ccc3N3CCC[C@H]2C3)ncn1", "experimental_target": "SIRT1 (Homo sapiens, UniProt Q96EB6)", "Tryp AVG EC1.5 (μM)": "A (EC1.5<1 μM)"}
{"test_smiles": "O=C(Nc1ccncn1)N1c2nc(-c3cncc(C(F)(F)F)c3)ccc2N2CCC[C@H]1C2", "experimental_target": "SIRT1 (Homo sapiens, UniProt Q96EB6)", "Tryp AVG EC1.5 (μM)": "A (EC1.5<1 μM)"}
{"test_smiles": "Cc1cc(-c2ccc3c(n2)N(C(=O)Nc2ccc(F)cn2)[C@H]2CCN3C2)ccn1", "experimental_target": "SIRT1 (Homo sapiens, UniProt Q96EB6)", "Tryp AVG EC1.5 (μM)": "A (EC1.5<1 μM)"}
{"test_smiles": "O=C(Nc1ccccn1)N1c2nc(-c3cncc(Cl)c3)ccc2N2CC[C@H]1C2", "experimental_target": "SIRT1 (Homo sapiens, UniProt Q96EB6)", "Tryp AVG EC1.5 (μM)": "A (EC1.5<1 μM)"}
{"test_smiles": "O=C(Nc1cccc(-c2cnco2)c1)N1c2nc(-c3cncc(Cl)c3)ccc2N2CCC1CC2", "experimental_target": "SIRT1 (Homo sapiens, UniProt Q96EB6)", "Tryp AVG EC1.5 (μM)": "A (EC1.5<1 μM)"}

// lookup Tryp AVG EC1.5 (μM) for "O=C(Nc1ccc(F)cn1)N1c2nc(-c3cccc(N4CC[C@H](F)C4)c3)ccc2N2CC[C@H]1C2" B (EC1.5 1-25 μM)

And the next one, "Cc1c(-c2ccc3c(n2)N(C(=O)Nc2cccnc2)[C@H]2CCN3C2)cnn1C" ? B (EC1.5 1-25 μM)

----------
experimental_target: SIRT1 (Homo sapiens, UniProt Q96EB6)
Sequence (Q96EB6 1-747): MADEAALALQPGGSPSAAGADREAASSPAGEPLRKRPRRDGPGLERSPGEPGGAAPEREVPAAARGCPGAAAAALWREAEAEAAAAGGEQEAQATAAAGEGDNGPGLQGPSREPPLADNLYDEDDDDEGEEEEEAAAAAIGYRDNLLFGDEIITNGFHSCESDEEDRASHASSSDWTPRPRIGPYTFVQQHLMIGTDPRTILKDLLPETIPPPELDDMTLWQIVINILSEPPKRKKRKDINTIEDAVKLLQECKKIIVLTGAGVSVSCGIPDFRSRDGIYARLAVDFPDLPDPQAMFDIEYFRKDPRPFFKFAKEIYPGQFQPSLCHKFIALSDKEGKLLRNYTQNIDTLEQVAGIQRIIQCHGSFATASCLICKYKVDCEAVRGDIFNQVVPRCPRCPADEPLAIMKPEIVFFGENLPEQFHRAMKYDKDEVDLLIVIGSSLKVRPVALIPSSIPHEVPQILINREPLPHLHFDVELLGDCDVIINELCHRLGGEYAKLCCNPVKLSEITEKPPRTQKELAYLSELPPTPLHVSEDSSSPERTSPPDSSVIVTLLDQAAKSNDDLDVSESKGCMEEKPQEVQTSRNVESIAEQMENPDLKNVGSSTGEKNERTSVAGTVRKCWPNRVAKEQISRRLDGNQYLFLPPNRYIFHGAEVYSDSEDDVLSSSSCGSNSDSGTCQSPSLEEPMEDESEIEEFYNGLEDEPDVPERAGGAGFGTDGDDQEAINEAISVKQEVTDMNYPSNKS
method_notes: Trp mass spectrometry assay (SIRT1 activation)
Type: biochemical
particulars: concentration of test compound that results in 150% activation of SIRT1; Trp peptide substrate
metric_name: Tryp AVG EC1.5 (μM)

Worked cases, Tryp AVG EC1.5 (μM) given:
{"molecule": "O=C(Nc1ccccn1)N1c2nc(-c3cccc(C(F)(F)F)c3F)ccc2N2CC[C@H]1C2 [Example 334]", "metric_name": "Tryp AVG EC1.5 (μM)", "recorded_value": "B (EC1.5 1-25 μM)"}
{"molecule": "N#Cc1cncc(-c2ccc3c(n2)N(C(=O)Nc2cnccn2)[C@H]2CCN3C2)c1 [Example 459]", "metric_name": "Tryp AVG EC1.5 (μM)", "recorded_value": "A (EC1.5<1 μM)"}
{"molecule": "O=C(NCCCCc1ccccc1)N1c2nc(-c3cccc(C(F)(F)F)c3)ccc2N2CC[C@H]1C2 [Example 600]", "metric_name": "Tryp AVG EC1.5 (μM)", "recorded_value": "B (EC1.5 1-25 μM)"}
{"molecule": "O=C1C=CC2=C(c3ccc(NC(=S)NCc4ccc(NC(=O)N5c6nc(-c7cccc(C(F)(F)F)c7)ccc6N6CC[C@H]5C6)cc4)cc3C(=O)O)C3C=CC(O)=CC3OC2=C1 (stereo partly drawn) [Example 530]", "metric_name": "Tryp AVG EC1.5 (μM)", "recorded_value": "A (EC1.5<1 μM)"}
{"molecule": "O=C(Nc1cccnc1)N1c2nc(-c3cccc(C(F)(F)F)c3)ccc2N2CCC1CC2 [Example 485]", "metric_name": "Tryp AVG EC1.5 (μM)", "recorded_value": "A (EC1.5<1 μM)"}

// lookup Tryp AVG EC1.5 (μM) for O=C(Nc1ncccn1)N1c2nc(N3CCCC(C(F)(F)F)C3)ccc2N2CCC[C@H]1C2 (stereo partly drawn) [Example 292] A (EC1.5<1 μM)

And the next one, O=C(Nc1cnccn1)N1c2nc(-c3cc(C(F)(F)F)cc(C(F)(F)F)c3)ccc2C2CC[C@H]1C2 [Example 363] ? B (EC1.5 1-25 μM)

And the next one, O=C(Nc1cnccn1)N1c2nc(-c3cc(F)c(F)c(F)c3)ccc2N2CC[C@H]1C2 [Example 416] ? C (EC1.5>25 μM)

And the next one, O=C(Nc1cccc(-c2cnco2)c1)N1c2nc(-c3cccc(C(F)(F)F)c3)ccc2N2CC[C@@H]1C2 [Example 233] ? A (EC1.5<1 μM)

And the next one, COc1nccnc1NC(=O)N1c2nc(-c3ccnc(C)c3)ccc2N2CC[C@H]1C2 [Example 501] ? B (EC1.5 1-25 μM)

And the next one, CN(C)c1cccc(-c2ccc3c(n2)N(C(=O)Nc2ccccn2)[C@H]2CCCN3C2)c1 [Example 386] ? B (EC1.5 1-25 μM)

And the next one, O=C(CCCC[C@@H]1SCC2NC(=O)NC21)NCCCCCC(=O)NCc1ccc(NC(=O)N2c3nc(-c4cccc(C(F)(F)F)c4)ccc3N3CC[C@H]2C3)cc1 (stereo partly drawn) [Example 428] ? A (EC1.5<1 μM)

And the next one, O=C(Nc1ccccn1)N1c2nc(-c3cccc(N4CC[C@@H](F)C4)c3)ccc2N2CC[C@H]1C2 [Example 279] ? A (EC1.5<1 μM)

And the next one, O=C(Nc1ccccn1)N1c2nc(-c3ccc(F)c(Cl)c3)ccc2N2CC[C@H]1C2 [Example 329] ? A (EC1.5<1 μM)

And the next one, Cc1n[nH]c(C)c1-c1ccc2c(n1)N(C(=O)Nc1cccnc1)[C@H]1CCN2C1 [Example 525] ? B (EC1.5 1-25 μM)

And the next one, Cc1c(-c2ccc3c(n2)N(C(=O)Nc2cnccn2)[C@H]2CCN3C2)cnn1C [Example 532] ? B (EC1.5 1-25 μM)

And the next one, COc1cc(NC(=O)N2c3nc(-c4cccc(N5CCOCC5)c4)ccc3N3CCC[C@H]2C3)ncn1 [Example 528] ? B (EC1.5 1-25 μM)

And the next one, CC(C)(C)OC(=O)N1CCc2cc(NC(=O)N3c4nc(-c5cccc(C(F)(F)F)c5)ccc4N4CC[C@H]3C4)ccc2C1 [Example 611] ? A (EC1.5<1 μM)

And the next one, O=C(Nc1ccncc1)N1c2nc(-c3ccnc(N4CC[C@H](F)C4)c3)ccc2N2CC[C@H]1C2 [Example 422] ? A (EC1.5<1 μM)

And the next one, COc1cc(NC(=O)N2c3nc(-c4cccc(N(C)C)c4)ccc3N3CCC[C@@H]2C3)ncn1 [Example 265] ? B (EC1.5 1-25 μM)

And the next one, O=C(Nc1cncc(F)c1)N1c2nc(-c3cncc(F)c3)ccc2N2CCC1CC2 [Example 571] ? B (EC1.5 1-25 μM)

And the next one, Cc1cc(-c2ccc3c(n2)N(C(=O)Nc2ccc4c(cnn4C)c2)[C@H]2CCN3C2)ccn1 [Example 502] ? A (EC1.5<1 μM)

And the next one, Cc1ccc(-c2ccc3c(n2)N(C(=O)Nc2cncc(F)c2)[C@H]2CCCN3C2)cn1 [Example 477] ? B (EC1.5 1-25 μM)
